Quick reference for inhibition among some compounds
- targetOrSystem: SARS-CoV-2 Main Protease (SARS-CoV-2) (UniProt P0DTD1)
- protocolConditions: 50.0 µM
experimentalEndpoint: inhibition (%)

1) O=C(Nc1nc2ccc(F)cn2n1)C1CCOc2ccc(Cl)cc21 (stereo unspecified) = 7.58
2) CC(=O)NCCc1c[nH]c2c(NCc3ccc4nc[nH]c4c3)cc(F)cc12 = 12.1
3) O=C1CCCCC(C(=O)Nc2ccc(-c3nc[nH]n3)cc2F)N1 (stereo unspecified) = -3.07
4) Cc1ccncc1NC(=O)C1C2CCOCC21 (stereo unspecified) = -10.8
5) CS(=O)(=O)Nc1cccc(C(=O)Oc2cccc(N3CCCC3=O)c2)c1 = 35.7
6) NC(=O)[C@@H]1CN(C2CCOCC2)C[C@H]1c1ccccc1 (stereo in doubt) = -23
7) CN1CCN(C(=O)Cc2c[nH]c3ncccc23)CC1C(=O)NCCc1c[nH]c2ccc(F)cc12 (stereo unspecified) = -21.5
8) Cc1nnc(NC(=O)Cc2cccc(Cl)c2F)n1C = -10.8
9) CCC(=O)Nc1ccc(N(Cc2ccsc2)C(=O)Cn2nnc3ccccc32)cc1 = 89.3
10) COc1cccc2c1OCC(NC(=O)c1cc(=O)[nH]c3ccc(F)cc13)C2 (stereo unspecified) = 19
11) O=C(CCl)N1CCOc2cccc(-c3cccnc3)c21 = 7.44

---

Quick reference for relative solubility at 20 uM among some compounds
- protocolConditions: 20.0 µM
experimentalEndpoint: relative solubility at 20 uM

1. Cc1ccncc1NC(=O)C1(c2cccc(Cl)c2)CC1 = 1.01
2. CS(=O)(=O)Nc1cccc(C(=O)Nc2cccc(N3CCCC3=O)c2)c1 = 1
3. Cc1nnc(CNC(=O)C2CCOc3ccc(Cl)cc32)n1C1CC1 (stereo not drawn) = 1
4. N#CC(C(=O)Nc1ccccc1)C(=O)c1cccc(Cl)c1 (stereo not drawn) = 0.98
5. CC(C)N(C)CC1CCN(c2ccc(S(N)(=O)=O)cc2)CC1 = 1
6. O=C(C(F)Cl)N1CCCC(c2nc3ccccc3s2)C1 (stereo not drawn) = 0.99
7. O=C(NCCOc1ccccc1)c1cc(=O)[nH]c2ccccc12 = 1
8. Cc1nnc(C2Cc3ccccc3CN2C(=O)CCl)o1 (stereo not drawn) = 0.99
9. Cc1ccncc1NC(=O)c1ccc(NC(=O)Nc2cccnc2)cc1 = 1
10. C=CC(=O)N(c1ccc(C(C)(C)C)cc1)C(C(=O)NC(C)(C)C)c1cncc(Br)c1C (stereo not drawn) = 0.98
11. Cc1cc(NC(=O)Cc2cncnc2)cc(OC2CC(=O)N2)c1 (stereo not drawn) = 1.01
12. C=CC(=O)N(c1ccc(C(C)(C)C)cc1)C(C(=O)NC(C)(C)C)c1cncc(Br)c1 (stereo not drawn) = 0.99
13. CC1CN(Cc2cccc(Cl)c2)CCN1C(=O)CCl (stereo not drawn) = 0.99
14. O=C(Cc1ccc(F)cc1)Nc1cccc2cc[nH]c12 = 1
15. CNS(=O)(=O)Cc1ccc2[nH]cc(CCN(C)C)c2c1 = 1
16. C=CC(=O)N1CC(NCC2=CNC3C=CC(C#N)=CC23)C1 (stereo not drawn) = 1
17. Cc1nnc(CC(=O)Nc2cccnc2)s1 = 1
18. O=C(CCn1ccnn1)NC(CN1CCOCC1)c1ccccc1 (stereo not drawn) = 1
19. Cc1ccncc1NC(=O)CC1CCCNC1 (stereo not drawn) = 1
20. O=C(c1cc(=O)[nH]c2ccccc12)N1CCN(c2ccc(F)cc2)CC1 = 0.99
21. C=CC(=O)N(c1ccc(C(C)(C)C)cc1)C(C(=O)NCc1ccc(F)cc1)c1cccnc1 (stereo not drawn) = 0.98
22. O=C(Nc1ccc(N(Cc2ccsc2)C(=O)Cn2nnc3ccccc32)cc1)C1CC1 = 0.9
23. COc1ccc(N2CCN(C(=O)c3cc(=O)[nH]c4ccccc34)CC2)cc1 = 1

---

- targetOrSystem: SARS-CoV-2 Main Protease (SARS-CoV-2)
- protocolConditions: 50.0 µM
experimentalEndpoint: inhibition (%)

1. O=C(Nc1nncn1C1CC1)C1CCOc2c(F)cccc21 (stereo unspecified) = 3.56
2. CC(C)Cn1cc(NC(=O)Nc2cccnc2)c2ccccc2c1=O = 6.63
3. CCO[C@@H]1C[C@H]1C(=O)Nc1cnccc1C (stereo in doubt) = -3.45
4. C=C1CC1C(=O)NC(C)c1ccc(S(=O)(=O)NC)cc1 (stereo unspecified) = -0.972
5. C=CC(=O)N(c1ccc(C(C)C)nc1)C(C(=O)NC(C)(C)C)c1cccnc1 (stereo unspecified) = 11.4
6. CC(C)Cn1cc(NC(=O)NCCCN2CCC(C)CC2)c2ccccc2c1=O = -1.61

---

- targetOrSystem: UniProt P0DTD1
- protocolConditions: 50.0 µM
Mark satisfied for reported inhibition of 10% or greater; mark not satisfied for anything smaller.

1) O=S(=O)(NC1(Cc2ccccc2)CCOCC1)c1cccnc1 = satisfied
2) Cn1cnnc1NC(=O)Cc1cccc(Cl)c1 = not satisfied
3) CN(C)c1ccc(N(Cc2ccsc2)C(=O)Cn2nnc3ccccc32)cc1 = satisfied
4) CC(C)(C)c1ccc(N(C(=O)c2ccco2)[C@@H](C(=O)NCCc2cccc(F)c2)c2cccnc2)cc1 = satisfied
5) NC(=O)[C@@H]1CN(C2CCOCC2)C[C@H]1c1ccccc1 (stereo in doubt) = not satisfied
6) CNC(=O)OC1CCN(S(=O)(=O)c2ccccc2)CC1 = not satisfied
7) C=CC(=O)N(c1ccc(C(C)(C)C)cc1)C(C(=O)NC1CCCCC1)c1cccnc1 (configuration not stated) = satisfied
8) C[N+]1=C2C=C(NCCc3ccc(O)cc3)C(=O)c3[nH]cc(c32)CC1 = not satisfied
9) Cc1ccncc1NC(=O)Cc1cccc(S(N)(=O)=O)c1 = satisfied
10) COc1ccc2c(c1)C(C(=O)Nc1cnccc1-n1cccn1)CCC2 (configuration not stated) = not satisfied
11) Cc1nc[nH]c1CN1CCN(Cc2cccc(Cl)c2)C1=O = not satisfied
12) C=CC(=O)N(c1ccc(C2(C)CC2)cc1)C(C(=O)Nc1c(C)cccc1CC)c1cccnc1 (configuration not stated) = satisfied
13) O=C(NCCNc1ccccc1)c1cc(=O)[nH]c2ccccc12 = satisfied
14) O=C(CCl)N1CCN(Cc2cccc(Cl)c2)C[C@@H]1Cc1ccccc1 (stereo in doubt) = satisfied
15) COc1ccc2c(=O)cc(-c3cc(OCc4ccccc4)ccc3OC)oc2c1 = not satisfied
16) COc1ccnc(NC(=O)Cc2ccc3ccccc3c2)c1 = satisfied
17) CCO[C@@H]1C[C@H]1C(=O)Nc1cnccc1C (stereo in doubt) = not satisfied
18) COC(=O)C(c1ccccc1Cl)N1CCC2SC(=O)C=C2C1 (configuration not stated) = satisfied
19) CC12CCCC(O1)c1c(cc3c(c1O)C(=O)c1c(O)cc(O)cc1C3=O)O2 (configuration not stated) = satisfied
20) Cc1ccncc1NC(=O)C1(c2cccc(Cl)c2)CC1 = satisfied
21) Cc1cnn(-c2ccncc2NC(=O)Cn2cc(C)c3ccccc32)c1 = not satisfied
22) Cc1ccc(C)c(NC(=O)[C@H]2CNC(=O)C2)c1 (stereo in doubt) = not satisfied

---

Quick reference for inhibition among some compounds
- targetOrSystem: SARS-CoV-2 Main Protease (SARS-CoV-2) (UniProt P0DTD1)
- protocolConditions: 50.0 µM
experimentalEndpoint: inhibition (%)

1) Cc1ccc(CN2CCC(CNC(=O)Nc3cn(CC(C)C)c(=O)c4ccccc34)C2)cc1 (stereo not drawn) = 0.927
2) O=C1Nc2ccc(OCCF)cc2C1=O = -2.92
3) Cc1cc2c(cc1C)[C@H](C(=O)Nc1cncnc1-n1cccn1)CO2 (stereo in doubt) = -9.4
4) C=CC(=O)N(c1ccc(C(C)(C)C)cc1)C(C(=O)NCCc1cccc(F)c1)c1cncc(Cl)c1 (stereo not drawn) = 57.9
5) O=C(CCl)Nc1cccc(-c2ccc3c(c2)CCCC3)c1 = 15.2
6) COCc1cc(Cl)cc(CN2CCN(C(=O)CCl)CC2)c1 = 99.9
7) C=CC(=O)N(c1ccc(C(C)(C)C)cc1)C(C(=O)NCCc1cccc(F)c1)c1cncc(C)c1 (stereo not drawn) = 78.2
8) CC(NC(=O)Nc1cccc(N2CCCCC2=O)c1)c1ccn[nH]1 (stereo not drawn) = -2.76
9) Cc1noc(C)c1CS(=O)(=O)Cc1cccc(Cl)c1 = -0.0149
10) CN1CCC(C(=O)NC2CCCCC2NC(=O)C2CCCCC2)CC1 (stereo not drawn) = -19.4
11) CC(C(=O)Nc1cnccc1O)c1ccccc1 (stereo not drawn) = 0.74
12) O=C(Nc1ccccc1)Nc1cnc2ccc([N+](=O)[O-])cc2n1 = 9.06
13) CN(CCC(N)=O)C(=O)C(=O)N1Cc2ccccc2C(c2ccccc2)C1 (stereo not drawn) = -0.803
14) COc1ccc(N2CCN(C(=O)c3cc(=O)[nH]c4ccccc34)CC2)cc1 = 81.7
15) N#Cc1cccc(NC(=O)Nc2cccnc2)c1 = 10.3
16) C#CCN1CCN(C(=O)C=C)CC1 = -15
17) O=C(CNc1c(-c2ccccc2)nc2ccccn12)N/N=C/c1cccc2ccccc12 = 17.8
18) CC(C)Cn1cc(NC(=O)NC2CCCCCC2)c2ccccc2c1=O = 2.3
19) O=S(=O)(NC1(Cc2ccccc2)CCOCC1)c1cccnc1 = 3.06
20) NC1=Nc2nc3ccccc3n2C(c2ccc(-c3nc4ccccc4s3)o2)N1 (stereo not drawn) = -3.34
21) COc1ccc(Cl)cc1N1CCN(Cc2cc(=O)[nH]c3ccccc23)C1=O = 4.69
22) Cn1cc(NC(=O)NCCc2ccc(Cl)cc2)c2ccccc2c1=O = -3.22
23) CN(Cc1ccc(OCc2cccs2)cc1)C(=O)Cn1nnc2ccccc21 = 10.2
